Hey, just so you know, these numbers are from ChEMBL document CHEMBL3603819.

Answer each item with its documented inhibition.
system: Tylonycteris bat coronavirus HKU4; settings: at 100 µM
A number alone suffices; assume %.

Task item: Indicate its recorded inhibition; the compound in question is CC(C)(C)NC(=O)C(c1cccnc1)N(C(=O)c1ccc(C#N)cc1)c1ccc(OCF)cc1 (centres undefined)
Reply: 15

Task item: Indicate its recorded inhibition; the compound in question is CC(C)(C)NC(=O)C(c1cccnc1)N(C(=O)c1n[nH]c2ccccc12)c1ccc(F)cc1 (centres undefined)
Reply: 14

Task item: Indicate its recorded inhibition; the compound in question is CC(C)c1ccc(N(C(=O)c2n[nH]c3ccccc23)C(C(=O)NC(C)(C)C)c2cccnc2)cc1 (centres undefined)
Reply: 21

Task item: Indicate its recorded inhibition; the compound in question is CCOc1ccc(N(C(=O)c2ccco2)C(C(=O)NC(C)(C)C)c2cccnc2)cc1 (centres undefined)
Reply: 12

Task item: Indicate its recorded inhibition; the compound in question is CC(C)(C)NC(=O)C(c1cccnc1)N(C(=O)c1ccncc1)c1ccc(C(C)(C)C)cc1 (centres undefined)
Reply: 13

Task item: Indicate its recorded inhibition; the compound in question is CCC(=O)Nc1ccc(N(Cc2ccsc2)C(=O)Cn2nnc3ccccc32)cc1
Reply: 92

Task item: Indicate its recorded inhibition; the compound in question is CC(C)(C)NC(=O)C(c1ccsc1)N(C(=O)Cn1nnc2ccccc21)c1ccc(NC(=O)C2CC2)cc1 (centres undefined)
Reply: 85

Task item: Indicate its recorded inhibition; the compound in question is CC(C)(C)NC(=O)C(c1ccsc1)N(C(=O)c1cccc2c1CCCC2)c1ccc(OCF)cc1 (centres undefined)
Reply: 15

Task item: Indicate its recorded inhibition; the compound in question is CC(C)(C)NC(=O)C(c1ccsc1)N(C(=O)Cc1cccnc1)c1ccc(C(C)(C)C)cc1 (centres undefined)
Reply: 23

====

Answer each item with its documented inhibition.
system: Tylonycteris bat coronavirus HKU4; conditions: at 100 µM

Task item: Indicate its recorded inhibition; the compound in question is CC(C)(C)NC(=O)C(c1cccnc1)N(C(=O)Cc1c[nH]c2ccccc12)c1ccc(C(C)(C)C)cc1 (centres undefined)
Reply: 79%

Task item: Indicate its recorded inhibition; the compound in question is CC(C)(C)NC(=O)C(c1cccnc1)N(C(=O)c1ccco1)c1ccc(-c2cccn2C(=O)OC(C)(C)C)cc1 (centres undefined)
Reply: 17%

Task item: Indicate its recorded inhibition; the compound in question is CC(C)(C)NC(=O)C(c1cccnc1)N(C(=O)c1ccco1)c1ccc(F)cc1 (centres undefined)
Reply: 41%

Task item: Indicate its recorded inhibition; the compound in question is CC(C)(C)NC(=O)C(c1cccnc1)N(C(=O)c1ccco1)c1ccc(-c2cncnc2)cc1 (centres undefined)
Reply: 14%

Task item: Indicate its recorded inhibition; the compound in question is CC(C)(C)NC(=O)C(c1ccsc1)N(C(=O)Cn1nnc2ccccc21)c1ccc(NC(=O)C(C)(C)C)cc1 (centres undefined)
Reply: 18%

Task item: Indicate its recorded inhibition; the compound in question is COc1ccc(C(=O)N(c2ccc(C(C)(C)C)cc2)C(C(=O)NC(C)(C)C)c2cccnc2)cc1 (centres undefined)
Reply: 16%

Task item: Indicate its recorded inhibition; the compound in question is CC(C)(C)NC(=O)C(c1ccsc1)N(C(=O)Cc1c[nH]c2ccccc12)C1CC1 (centres undefined)
Reply: 17%

Task item: Indicate its recorded inhibition; the compound in question is CC(C)c1ccc(N(C(=O)c2ccc(C(F)(F)F)nc2)C(C(=O)NC(C)(C)C)c2ccsc2)cc1 (centres undefined)
Reply: 15%

Task item: Indicate its recorded inhibition; the compound in question is CC(C)COc1ccc(N(C(=O)c2ccco2)C(C(=O)NC(C)(C)C)c2cccnc2)cc1 (centres undefined)
Reply: 25%

====

Answer each item with its documented inhibition.
test system: Tylonycteris bat coronavirus HKU4; conditions: at 100 µM
Include the unit right after the number.

Task item: Indicate its recorded inhibition; the compound in question is CC(C)(C)NC(=O)C(c1ccsc1)N(C(=O)Cc1c[nH]c2ccccc12)c1ccc(OCF)cc1 (centres undefined)
Reply: 25%

Task item: Indicate its recorded inhibition; the compound in question is CC(C)(C)NC(=O)C(c1ccsc1)N(C(=O)Cc1cccnc1)c1ccc(OCF)cc1 (centres undefined)
Reply: 29%

Task item: Indicate its recorded inhibition; the compound in question is CC(C)(C)NC(=O)C(c1ccsc1)N(C(=O)Cn1nnc2ccccc21)c1ccc(NC(=O)c2ccccc2)cc1 (centres undefined)
Reply: 79%

Task item: Indicate its recorded inhibition; the compound in question is CC(C)(C)NC(=O)C(c1cc[nH]n1)N(C(=O)c1ccco1)c1ccc(C(C)(C)C)cc1 (centres undefined)
Reply: 11%

Task item: Indicate its recorded inhibition; the compound in question is CC(C)(C)NC(=O)C(c1cccnc1)N(C(=O)c1cccc2c1CCCC2)c1ccc(F)cc1 (centres undefined)
Reply: 22%

Task item: Indicate its recorded inhibition; the compound in question is CC(C)C(=O)Nc1ccc(N(C(=O)Cn2nnc3ccccc32)C(C(=O)NC(C)(C)C)c2ccsc2)cc1 (centres undefined)
Reply: 76%

Task item: Indicate its recorded inhibition; the compound in question is CC(C)(C)NC(=O)[C@H](c1cccnc1)N(C(=O)c1ccco1)c1ccc(C(C)(C)C)cc1
Reply: 65%

Task item: Indicate its recorded inhibition; the compound in question is CC(=O)Nc1ccc(N(C(=O)Cn2cnc3ccccc32)C(C(=O)NC(C)(C)C)c2ccsc2)cc1 (centres undefined)
Reply: 14%

Task item: Indicate its recorded inhibition; the compound in question is CC(C)c1ccc(N(C(=O)Cc2c[nH]c3ccccc23)C(C(=O)NC(C)(C)C)c2ccsc2)cc1 (centres undefined)
Reply: 25%

====

Answer each item with its documented inhibition.
tested on: Tylonycteris bat coronavirus HKU4; conditions: at 100 µM
A number alone suffices; assume %.

Task item: Indicate its recorded inhibition; the molecule in question is CCC(=O)Nc1ccc(N(C(=O)Cn2ccnc2C)C(C(=O)NC(C)(C)C)c2ccsc2)cc1 (stereo not drawn)
Reply: 19

Task item: Indicate its recorded inhibition; the molecule in question is CC(C)(C)NC(=O)C(c1ccsc1)N(C(=O)c1n[nH]c2ccccc12)c1ccc(OC(F)F)cc1 (stereo not drawn)
Reply: 17

Task item: Indicate its recorded inhibition; the molecule in question is CC(C)C(=O)Nc1ccc(N(C(=O)Cn2cnc3ccccc32)C(C(=O)NC(C)(C)C)c2ccsc2)cc1 (stereo not drawn)
Reply: 56

Task item: Indicate its recorded inhibition; the molecule in question is CC(C)(C)NC(=O)C(c1ccsc1)N(C(=O)c1n[nH]c2ccccc12)c1ccc(C(C)(C)C)cc1 (stereo not drawn)
Reply: 16

Task item: Indicate its recorded inhibition; the molecule in question is CC(C)(C)NC(=O)C(c1cccnc1)N(C(=O)c1n[nH]c2ccccc12)C1CC1 (stereo not drawn)
Reply: 21

Task item: Indicate its recorded inhibition; the molecule in question is CC(C)(C)NC(=O)C(c1cccnc1)N(C(=O)Cc1ccco1)C1CC1 (stereo not drawn)
Reply: 43

Task item: Indicate its recorded inhibition; the molecule in question is O=C(Nc1ccc(N(Cc2ccsc2)C(=O)Cn2nnc3ccccc32)cc1)c1cccs1
Reply: 93

Task item: Indicate its recorded inhibition; the molecule in question is CC(C)(C)NC(=O)C(c1cn[nH]c1)N(C(=O)c1ccco1)c1ccc(C(C)(C)C)cc1 (stereo not drawn)
Reply: 12

Task item: Indicate its recorded inhibition; the molecule in question is CC(C)(C)NC(=O)C(c1cccnc1)N(C(=O)Cc1cccc2ccccc12)c1ccc(F)cc1 (stereo not drawn)
Reply: 22

Task item: Indicate its recorded inhibition; the molecule in question is CC(C)C(=O)Nc1ccc(N(Cc2ccsc2)C(=O)Cn2nnc3ccccc32)cc1
Reply: 92

Task item: Indicate its recorded inhibition; the molecule in question is CC(C)(C)NC(=O)C(c1cccnc1)N(C(=O)c1cnco1)c1ccc(C(C)(C)C)cc1 (stereo not drawn)
Reply: 96

Task item: Indicate its recorded inhibition; the molecule in question is CC(C)(C)NC(=O)C(c1cccnc1)N(C(=O)c1c[nH]c2ccccc12)C1CC1 (stereo not drawn)
Reply: 49

Task item: Indicate its recorded inhibition; the molecule in question is CC(C)(C)NC(=O)C(c1ccsc1)N(C(=O)c1n[nH]c2ccccc12)C1CC1 (stereo not drawn)
Reply: 21

Task item: Indicate its recorded inhibition; the molecule in question is CC(C)(C)NC(=O)C(c1cccnc1)N(C(=O)c1ccc(C#N)cc1)c1ccc(C(C)(C)C)cc1 (stereo not drawn)
Reply: 11

Task item: Indicate its recorded inhibition; the molecule in question is CC(C)COC(=O)Nc1ccc(N(C(=O)Cn2nnc3ccccc32)C(C(=O)NC(C)(C)C)c2ccsc2)cc1 (stereo not drawn)
Reply: 19

Task item: Indicate its recorded inhibition; the molecule in question is CC(C)(C)NC(=O)C(c1cncnc1)N(C(=O)c1cnco1)c1ccc(C(C)(C)C)cc1 (stereo not drawn)
Reply: 58

Task item: Indicate its recorded inhibition; the molecule in question is CC(C)(C)NC(=O)C(c1ccsc1)N(C(=O)c1ccc(C#N)cc1)c1ccc(F)cc1 (stereo not drawn)
Reply: 13

Task item: Indicate its recorded inhibition; the molecule in question is CC(C)(C)NC(=O)C(c1ccsc1)N(C(=O)Cc1cccnc1)c1ccc(F)cc1 (stereo not drawn)
Reply: 24
